Data origin: paper PMC9307952

- target: E. coli LipBK135A/C169A (catalytically inactive double mutant of lipoate protein ligase B) (E. coli, UniProt P60720 1-213, K135A | C169A)
- test protocol: SPR; apparent (binding curve did not reach saturation for holo-ACP); LipBK135A/C169A immobilised on an activated gold sensor surface (Autolab ESPRIT), increasing concentrations of ACP passed over; 20 mM sodium phosphate pH 8.0, 100 mM NaCl, 298 K; global fit of five injections, 1:1 Langmuir model
- condition context: both partners purified

binder	Kd, µM
E. coli apo-ACP (unmodified acyl carrier protein), SPR sample (natural protein) STIEERVKKIIGEQLGVKQEEVTNNASFVEDLGADSLDTVELVMALEEEFDTEIPDEEAEKITTVQAAIDYINGHQA	2100
E. coli holo-ACP (acyl carrier protein with 4'-phosphopantetheine), SPR sample (natural protein, 4'-phosphopantetheine arm (residue not stated)) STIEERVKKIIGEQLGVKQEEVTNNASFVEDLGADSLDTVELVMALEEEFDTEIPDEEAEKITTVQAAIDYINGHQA	100
